The reported numbers originate from the supplement of paper PMC7877785.

test: self-splicing fitness, log relative to wild type (ln ratio); higher = more splicing; Tetrahymena group I intron in knt gene, E. coli kanamycin selection, DiMSum; sequences stand for … in CUCUCU…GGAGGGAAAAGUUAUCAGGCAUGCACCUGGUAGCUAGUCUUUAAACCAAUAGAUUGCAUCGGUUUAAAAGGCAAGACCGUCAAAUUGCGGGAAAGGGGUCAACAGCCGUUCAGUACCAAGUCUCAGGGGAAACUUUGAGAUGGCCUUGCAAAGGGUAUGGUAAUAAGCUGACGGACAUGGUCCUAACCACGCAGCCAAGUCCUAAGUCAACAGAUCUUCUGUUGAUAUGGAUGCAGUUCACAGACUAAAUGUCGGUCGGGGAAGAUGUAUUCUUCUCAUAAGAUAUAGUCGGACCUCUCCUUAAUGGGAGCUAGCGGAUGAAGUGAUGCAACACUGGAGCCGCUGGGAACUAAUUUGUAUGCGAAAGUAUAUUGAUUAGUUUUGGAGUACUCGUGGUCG; conditions: 37 °C;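 also: selection with 25 µg/mL kanamycin versus none on LB agar overnight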
Bucketed by reported self-splicing fitness (ln), buckets being group 1 (below -2), group 2 (-2 to below -1), group 3 (-1 or more)

- Construct sequence: "CUCGAGCAAUAUUACGAAGG"
  Class name: "group 2"
- Construct sequence: "CCUCAGCAAUAUUACGGAAA"
  Class name: "group 2"
- Construct sequence: "AUUCAGCAAUAUUACGUCUU"
  Class name: "group 3"
- Construct sequence: "AAGCAGCAAUAUUACGAAUG"
  Class name: "group 1"
- Construct sequence: "UGUGAGCAAUAUUACGAGCG"
  Class name: "group 3"
- Construct sequence: "GCCCAGCAAUAUUACGCAUU"
  Class name: "group 3"
- Construct sequence: "CCCGAGCAAUAUUACGGCAG"
  Class name: "group 1"
- Construct sequence: "UAUCAGCAAUAUUACGCGGG"
  Class name: "group 2"

* * *

assay: self-splicing fitness, log relative to wild type (ln ratio); higher = more splicing; Tetrahymena group I intron in knt gene, E. coli kanamycin selection, DiMSum; sequences stand for … in CUCUCU…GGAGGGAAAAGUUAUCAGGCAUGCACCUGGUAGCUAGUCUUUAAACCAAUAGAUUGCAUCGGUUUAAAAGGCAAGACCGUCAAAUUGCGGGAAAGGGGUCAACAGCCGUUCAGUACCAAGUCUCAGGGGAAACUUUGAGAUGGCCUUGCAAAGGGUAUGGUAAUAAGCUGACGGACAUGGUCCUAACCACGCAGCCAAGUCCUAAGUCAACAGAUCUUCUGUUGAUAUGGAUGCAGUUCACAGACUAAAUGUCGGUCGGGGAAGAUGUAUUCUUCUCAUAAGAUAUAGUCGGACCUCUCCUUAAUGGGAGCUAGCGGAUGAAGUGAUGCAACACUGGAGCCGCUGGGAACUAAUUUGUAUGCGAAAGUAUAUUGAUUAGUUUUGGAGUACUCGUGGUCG; details: 37 °C
Some sequences, each annotated with its measured self-splicing fitness (ln).

- Construct sequence: "UCCUAGCAAUAUUACGUACU"
  self-splicing fitness (ln): -2
- Construct sequence: "UUAGAGCAAUAUUACGGGUC"
  self-splicing fitness (ln): -1.69
- Construct sequence: "CAUUAGCAAUAUUACGGGAU"
  self-splicing fitness (ln): -2.92
- Construct sequence: "UUCGAGCAAUAUUACGUUAU"
  self-splicing fitness (ln): -2.82
- Construct sequence: "AAACAGCAAUAUUACGUUCA"
  self-splicing fitness (ln): -0.557
- Construct sequence: "GCCGAGCAAUAUUACGGGUG"
  self-splicing fitness (ln): -0.014
- Construct sequence: "GUAAAGCAAUAUUACGAAAG"
  self-splicing fitness (ln): -1.33
- Construct sequence: "GACCAGCAAUAUUACGAUCC"
  self-splicing fitness (ln): -1.27
- Construct sequence: "UUUCAGCAAUAUUACGUACU"
  self-splicing fitness (ln): -0.647
- Construct sequence: "CACAAGCAAUAUUACGCUGC"
  self-splicing fitness (ln): -2.87
- Construct sequence: "GUGUAGCAAUAUUACGGACU"
  self-splicing fitness (ln): -0.103
- Construct sequence: "AGAUAGCAAUAUUACGAGAC"
  self-splicing fitness (ln): -2.96
- Construct sequence: "GAAGAGCAAUAUUACGUAUA"
  self-splicing fitness (ln): -3.5
- Construct sequence: "AGAGAGCAAUAUUACGGGCU"
  self-splicing fitness (ln): -1.48
- Construct sequence: "CUUUAGCAAUAUUACGUCUU"
  self-splicing fitness (ln): -3.28
- Construct sequence: "GCUAAGCAAUAUUACGUUUA"
  self-splicing fitness (ln): -1.69
- Construct sequence: "UGCGAGCAAUAUUACGUGAA"
  self-splicing fitness (ln): -2.32
- Construct sequence: "GAUUAGCAAUAUUACGAUCA"
  self-splicing fitness (ln): -0.493
- Construct sequence: "UACCAGCAAUAUUACGUGCG"
  self-splicing fitness (ln): -0.367
- Construct sequence: "CGGCAGCAAUAUUACGCUCG"
  self-splicing fitness (ln): -2.93
- Construct sequence: "UCCAAGCAAUAUUACGGGUG"
  self-splicing fitness (ln): -0.583
- Construct sequence: "UCUAAGCAAUAUUACGGCCG"
  self-splicing fitness (ln): 0.444
- Construct sequence: "CACGAGCAAUAUUACGUAAG"
  self-splicing fitness (ln): -1.82
- Construct sequence: "GUCCAGCAAUAUUACGUCGG"
  self-splicing fitness (ln): -1.39
- Construct sequence: "GUUAAGCAAUAUUACGGUGG"
  self-splicing fitness (ln): -1.78
- Construct sequence: "GAAUAGCAAUAUUACGCUCA"
  self-splicing fitness (ln): 0.784
- Construct sequence: "UACCAGCAAUAUUACGAGCC"
  self-splicing fitness (ln): -2.07
- Construct sequence: "GCGGAGCAAUAUUACGAGUA"
  self-splicing fitness (ln): -1.82
- Construct sequence: "UAGUAGCAAUAUUACGCGGA"
  self-splicing fitness (ln): -0.643
- Construct sequence: "GCCGAGCAAUAUUACGCUAU"
  self-splicing fitness (ln): -1.75
- Construct sequence: "UCGUAGCAAUAUUACGCCCU"
  self-splicing fitness (ln): -0.827
- Construct sequence: "GCCGAGCAAUAUUACGACAU"
  self-splicing fitness (ln): -1.27
- Construct sequence: "CACUAGCAAUAUUACGCUGA"
  self-splicing fitness (ln): -1.51

* * *

The entries below come with measured self-splicing fitness (ln) values attached.
assay: self-splicing fitness, log relative to wild type (ln ratio); higher = more splicing; Tetrahymena group I intron in knt gene, E. coli kanamycin selection, DiMSum; sequences stand for … in CUCUCU…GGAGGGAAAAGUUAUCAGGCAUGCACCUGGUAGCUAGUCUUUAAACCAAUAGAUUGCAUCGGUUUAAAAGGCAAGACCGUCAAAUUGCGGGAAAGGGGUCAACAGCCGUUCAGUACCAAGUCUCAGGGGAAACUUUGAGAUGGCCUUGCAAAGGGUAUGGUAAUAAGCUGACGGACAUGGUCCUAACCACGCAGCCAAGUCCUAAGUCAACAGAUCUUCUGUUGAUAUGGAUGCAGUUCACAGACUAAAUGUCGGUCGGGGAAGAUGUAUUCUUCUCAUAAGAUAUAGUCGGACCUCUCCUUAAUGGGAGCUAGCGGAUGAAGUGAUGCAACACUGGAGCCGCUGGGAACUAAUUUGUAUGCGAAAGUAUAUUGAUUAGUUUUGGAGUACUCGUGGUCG; conditions: 30 °C

- Construct sequence: "GUGUAGCAAUAUUACGAUCA"
  self-splicing fitness (ln): -0.818
- Construct sequence: "CAAUAGCAAUAUUACGGGGC"
  self-splicing fitness (ln): -2.73
- Construct sequence: "CACCAGCAAUAUUACGGAGC"
  self-splicing fitness (ln): -2.79
- Construct sequence: "GGAUAGCAAUAUUACGUAAG"
  self-splicing fitness (ln): -1.87
- Construct sequence: "GAUCAGCAAUAUUACGGAUU"
  self-splicing fitness (ln): -3.32
- Construct sequence: "AAGGAGCAAUAUUACGUCGG"
  self-splicing fitness (ln): -3.13
- Construct sequence: "UCAUAGCAAUAUUACGUUCA"
  self-splicing fitness (ln): -1.73
- Construct sequence: "UAGUAGCAAUAUUACGCGGA"
  self-splicing fitness (ln): -3.56
- Construct sequence: "UCUAAGCAAUAUUACGACAG"
  self-splicing fitness (ln): -1.58
- Construct sequence: "UCGAAGCAAUAUUACGCUGC"
  self-splicing fitness (ln): -3.55
- Construct sequence: "CCCAAGCAAUAUUACGGAUG"
  self-splicing fitness (ln): -3.07
- Construct sequence: "UGCUAGCAAUAUUACGUAAA"
  self-splicing fitness (ln): -1.9
- Construct sequence: "CUACAGCAAUAUUACGGUGC"
  self-splicing fitness (ln): -4.58
- Construct sequence: "UAUAAGCAAUAUUACGGUGG"
  self-splicing fitness (ln): -1.67
- Construct sequence: "CUGGAGCAAUAUUACGUUGC"
  self-splicing fitness (ln): -3.09
- Construct sequence: "UAUAAGCAAUAUUACGGUAG"
  self-splicing fitness (ln): -1.59
- Construct sequence: "CGCCAGCAAUAUUACGUAGC"
  self-splicing fitness (ln): -2.36
- Construct sequence: "AGGAAGCAAUAUUACGGUGU"
  self-splicing fitness (ln): -3.33
- Construct sequence: "CACCAGCAAUAUUACGUGUC"
  self-splicing fitness (ln): -3.8
- Construct sequence: "UCGGAGCAAUAUUACGGUUA"
  self-splicing fitness (ln): -2.38
- Construct sequence: "GCGCAGCAAUAUUACGUGUU"
  self-splicing fitness (ln): -1.06
- Construct sequence: "AAAAAGCAAUAUUACGAGAG"
  self-splicing fitness (ln): -2.88
- Construct sequence: "CCAGAGCAAUAUUACGGUUC"
  self-splicing fitness (ln): -4.36
- Construct sequence: "AUCAAGCAAUAUUACGGUGU"
  self-splicing fitness (ln): -1.7
- Construct sequence: "UACGAGCAAUAUUACGUGAA"
  self-splicing fitness (ln): -3.05
- Construct sequence: "UCAAAGCAAUAUUACGUUGU"
  self-splicing fitness (ln): -3.4
